target: CFTR G551D mutant (Homo sapiens, UniProt P13569, G551D); construct: expressed in transfected cells; host or cells: HEK293 cells, reverse transfection with plasmids; assay: YFP-halide influx assay for the CFTR-G551D mutation (HEK293 cells); type: cell-based; conditions: forskolin 10.67 μM
Sequence (P13569 whole entry G551D): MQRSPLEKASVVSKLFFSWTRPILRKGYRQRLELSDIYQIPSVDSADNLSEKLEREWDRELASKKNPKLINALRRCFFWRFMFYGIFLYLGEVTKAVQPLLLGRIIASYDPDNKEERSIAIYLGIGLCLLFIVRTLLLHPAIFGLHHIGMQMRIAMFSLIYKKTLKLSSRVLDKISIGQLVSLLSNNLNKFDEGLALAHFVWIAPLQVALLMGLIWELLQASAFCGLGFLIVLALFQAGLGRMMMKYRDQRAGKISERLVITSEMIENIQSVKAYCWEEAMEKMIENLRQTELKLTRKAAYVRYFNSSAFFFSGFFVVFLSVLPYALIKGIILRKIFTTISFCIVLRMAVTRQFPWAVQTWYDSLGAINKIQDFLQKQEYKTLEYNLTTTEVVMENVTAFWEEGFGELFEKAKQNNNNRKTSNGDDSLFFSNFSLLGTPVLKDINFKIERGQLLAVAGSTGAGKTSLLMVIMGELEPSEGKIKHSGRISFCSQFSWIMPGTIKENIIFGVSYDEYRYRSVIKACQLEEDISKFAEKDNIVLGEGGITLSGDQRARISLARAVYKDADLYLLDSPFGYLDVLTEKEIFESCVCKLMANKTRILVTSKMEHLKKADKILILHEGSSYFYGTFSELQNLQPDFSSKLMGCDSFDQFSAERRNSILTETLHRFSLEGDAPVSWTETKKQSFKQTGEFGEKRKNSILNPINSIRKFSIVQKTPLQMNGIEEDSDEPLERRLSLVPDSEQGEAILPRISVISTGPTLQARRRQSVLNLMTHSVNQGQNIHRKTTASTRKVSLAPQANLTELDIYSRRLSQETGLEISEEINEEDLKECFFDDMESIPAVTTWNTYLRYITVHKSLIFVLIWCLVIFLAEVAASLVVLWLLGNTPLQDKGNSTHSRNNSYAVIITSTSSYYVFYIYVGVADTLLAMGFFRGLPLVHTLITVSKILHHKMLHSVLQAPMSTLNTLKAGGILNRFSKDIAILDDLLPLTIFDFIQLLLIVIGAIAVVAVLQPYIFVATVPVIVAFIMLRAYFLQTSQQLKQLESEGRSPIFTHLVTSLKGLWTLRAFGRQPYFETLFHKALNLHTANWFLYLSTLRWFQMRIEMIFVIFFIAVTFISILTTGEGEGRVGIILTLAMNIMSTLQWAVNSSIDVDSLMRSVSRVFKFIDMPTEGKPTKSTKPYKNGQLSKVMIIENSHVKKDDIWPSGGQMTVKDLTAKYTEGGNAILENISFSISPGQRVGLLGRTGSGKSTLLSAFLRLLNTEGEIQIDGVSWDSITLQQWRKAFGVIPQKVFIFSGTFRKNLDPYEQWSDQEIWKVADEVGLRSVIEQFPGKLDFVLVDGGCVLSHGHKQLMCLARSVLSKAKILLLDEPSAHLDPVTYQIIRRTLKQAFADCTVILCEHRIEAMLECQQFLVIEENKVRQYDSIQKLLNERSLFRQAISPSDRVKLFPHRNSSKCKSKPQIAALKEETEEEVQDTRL
MEASUREMENT NAME: % Activation (%)

> print(dat)
                  compound.structure.string  recorded.measurement
1  CCS(=O)(=O)c1cc(N)c(C(=O)NC[C@H](C)O)nc1C1CC1                   4.2
2  C[C@@H](O)CNC(=O)c1ncc(S(=O)(=O)c2ccc(OC(F)(F)F)cc2)cc1N                  64.8
3  CN(C)C(=O)C1CN(C(=O)c2ncc(S(=O)(=O)c3ccc(OC(F)(F)F)cc3)cc2N)C1                  49.3
4  COCC1(C)CN(C(=O)c2ncc(S(=O)(=O)c3ccc(C(F)(F)F)cc3)cc2N)C1                  66.0

(A) COCCS(=O)(=O)c1cc(N)c(C(=O)NC[C@H](C)O)nc1-c1ccc(F)cc1
(B) CC(C)[C@@H](CO)NC(=O)c1ncc(S(=O)(=O)c2ccc(OC(F)(F)F)cc2)cc1N
**Q:** Look at A and B . Which one has the lower recorded % Activation number? Please indicate the selected item by its label.
**A:** A
(A: 11.24%, B: 60.2%)

(P) Nc1cc(S(=O)(=O)c2ccc(C(F)(F)F)cc2)cnc1C(=O)N1CCC[C@@H]1CO
(Q) Nc1cc(S(=O)(=O)c2ccc(OC(F)(F)F)cc2)cnc1C(=O)NCC1CCOCC1
**Q:** Which record would sort first by descending % Activation, P or Q ? Please indicate the selected item by its label.
**A:** Q
